# Target: Human adrenergic α2B receptor (Homo sapiens, UniProt P18089)
# Sequence (P18089 whole entry): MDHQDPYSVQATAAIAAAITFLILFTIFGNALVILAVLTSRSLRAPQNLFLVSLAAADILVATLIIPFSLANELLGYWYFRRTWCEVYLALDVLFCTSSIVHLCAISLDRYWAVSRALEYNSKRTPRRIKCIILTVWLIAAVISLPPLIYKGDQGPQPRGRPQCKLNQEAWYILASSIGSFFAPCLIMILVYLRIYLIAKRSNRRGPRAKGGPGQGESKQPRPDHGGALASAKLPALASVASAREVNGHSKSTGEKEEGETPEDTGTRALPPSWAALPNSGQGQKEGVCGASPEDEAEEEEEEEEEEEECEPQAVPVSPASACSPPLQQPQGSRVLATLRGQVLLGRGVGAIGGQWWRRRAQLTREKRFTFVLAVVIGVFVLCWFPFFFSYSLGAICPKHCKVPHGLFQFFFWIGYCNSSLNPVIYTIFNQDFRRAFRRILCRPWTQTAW
# Experimental protocol: Radioligand binding, adrenergic α2B (Protocol Group B)
# Parameters: purchased Milipore (Millipore)
# Assay conditions: 10 nM compound; Protocol Group B; 0.01 µM
Give Percentage inhibition of ligand binding, Adrenergic α2B (10 nM) for every item shown.
Give bare numbers, in %.

>>> experimental_result("Cc1cc(F)cc2c3c(n(CC(C)(O)c4ccncc4)c12)CCN1CCCC31 (single isomer, unassigned) [77b]")
6
>>> experimental_result("CC(O)(Cn1c2c(c3cc(Cl)cc(F)c31)C1CCCN1CC2)c1ccncc1 (single isomer, unassigned) [52b]")
94
>>> experimental_result("Cc1ccc2c(c1)c1c(n2CC(C)(O)c2ccncc2)CCN2CCCC12 (single isomer, unassigned) [13c]")
"−1"

// for each molecule below, give its Percentage inhibition of ligand binding, Adrenergic α2B (10 nM)
1. Cc1cc(C)c2c(c1)c1c(n2CC(C)(O)c2ccncc2)CCN2CCCC12 (single isomer, unassigned) [19b]
2. CC(O)(Cn1c2c(c3cc(Cl)cc(F)c31)C1CCCN1CC2)c1cccnc1 (single isomer, unassigned) [53d]
3. CN1CCc2c(c3cc(C(F)(F)F)ccc3n2CC(OC2CCCC2)c2ccncc2)C1 (single isomer, unassigned) [60b]
4. CC(O)(Cn1c2c(c3cc(F)ccc31)C1CCCN1CC2)c1cccnc1 (stereo not shown) [51b]

1. 91
2. −3
3. 6
4. 45

// for each molecule below, give its Percentage inhibition of ligand binding, Adrenergic α2B (10 nM)
1. CC(O)(Cn1c2c(c3cc(F)ccc31)C1CCCN1CC2)c1cccnc1 (stereo not shown) [51a]
2. Cc1cc(Cl)c2c(c1)c1c(n2CC(C)(O)c2ccncc2)CCN2CCCC12 (single isomer, unassigned) [91d]
3. Cc1ccc2c(c1)c1c(n2CC(C)(O)c2cccnc2)CC2CCCN2C1 (stereo not shown) [41c]
4. Cc1ccc2c(c1)c1c(n2CC(C)(O)c2cccnc2)CCN(C)C1CO (single isomer, unassigned) [16a]
5. CCOC(Cn1c2c(c3cc(C)ccc31)CN(C)CC2)c1ccncc1 (single isomer, unassigned) [43b]

[79, "−1", "−8", "−1", 71]

// for each molecule below, give its Percentage inhibition of ligand binding, Adrenergic α2B (10 nM)
1. Cc1ccc2c(c1)c1c(n2CC(O)c2ccncc2F)CCN2CCCC12 (single isomer, unassigned) [14b]
2. Cc1ccc2c(c1)c1c(n2CC(O)c2cccnc2)CC2CCCN2C1 (single isomer, unassigned) [27b]

1: 98; 2: 26

// for each molecule below, give its Percentage inhibition of ligand binding, Adrenergic α2B (10 nM)
1. Cc1ccc2c(c1F)c1c(n2CC(C)(O)c2cccnc2)CCN2CCCC12 (single isomer, unassigned) [87b]
2. Cc1ccc2c(c1)c1c(n2CC(O)c2ccncc2)CN(C)C2CCCC12 (single isomer, unassigned) [36a]

[37, 8]

* * *

Give pIC50 for every item shown.
# Target: Human adrenergic α2B receptor (Homo sapiens, UniProt P18089)
# Experimental protocol: β-Arrestin GPCR functional assay, adrenergic α2B (Protocol B)
# Type: cell-based
# Assay conditions: β-arrestin, antagonist vs nor-epinephrine EC80; read-out: IC50 Adrenergic α2B
Numbers only, as −log10 of the molar value.

Please review the following examples before continuing.
>>> experimental_result("Cc1ccc2c(c1F)c1c(n2CC(C)(O)c2cccnc2)CCN2CCCC12 (single isomer, unassigned) [87c]")
7.89
>>> experimental_result("Cc1ccc2c(c1)c1c(n2CC(O)c2ccncc2)CC[N+]2([O-])CCCC12 (stereo not shown)")
6.42
>>> experimental_result("Cc1cc(F)c2c(c1)c1c(n2CC(O)c2ccncc2)CCN2CCCC12 (single isomer, unassigned) [137b]")
8.18
>>> experimental_result("Cc1ccc2c(c1)c1c(n2CC(O)c2ccncc2F)CCN2CCCC12 (single isomer, unassigned) [14a]")
6.91
>>> experimental_result("Cc1ccc2c(c1F)c1c(n2CC(C)(O)c2cccnc2)CCN2CCCC12 (single isomer, unassigned) [87a]")
6.52

// for each molecule below, give its pIC50
1. Cc1cc(F)cc2c3c(n(CC(C)(O)c4cccnc4)c12)CC1CCCN1C3 (single isomer, unassigned) [76d]
2. CC(O)(Cn1c2c(c3cc(Cl)cc(F)c31)CN1CCCC1C2)c1cccnc1 (single isomer, unassigned) [63c]

1. 6.58
2. 6.16

* * *

# Target: Human adrenergic α2A receptor (Homo sapiens, UniProt P08913)
# Experimental protocol: Radioligand binding, adrenergic α2A (Protocol Group B)
# Design: purchased Milipore (Millipore)
# Assay conditions: 0.1 μM compound; Protocol Group B; read-out: Percentage inhibition of ligand binding, Adrenergic α2A (0.1 μM)
Assay endpoint: inhibition at 0.1 µM (%)
One number for each entry, in %.

>>> experimental_result("Cc1ccc2c(c1)c1c(n2CC(O)c2cc[n+]([O-])cc2)CCN2CCCC12 (stereo not shown)")
7
>>> experimental_result("Cc1ccc2c(c1)c1c(n2C[C@@H](OC2CCCC2)c2ccncc2)CCN2CCC[C@H]12")
92
>>> experimental_result("Cc1ccc2c(c1)c1c(n2CC(O)c2ccc(C(=O)N3CCCC3)nc2)CCN(C)C1 (stereo not shown)")
-7
>>> experimental_result("Cc1ccc2c(c1)c1c(n2CC(O)c2ccncc2)CC[N+]2([O-])CCCC12 (stereo not shown)")
55
>>> experimental_result("OCc1ccc2c(c1)c1c(n2CC(O)c2ccncc2)CCN2CCCC12 (stereo not shown)")
20

// for each compound below, give its inhibition at 0.1 µM
1. Cc1cc(F)c2c(c1)c1c(n2CC(C)(O)c2cccnc2)CCN2CCCC12 (single isomer, unassigned) [79b]
2. Cc1ccc2c(c1)c1c(n2CC(O)c2cccnc2)C(O)CN(C)C1 (stereo not shown)
3. Cc1ccc2c(c1)c1c(n2CC(OCC2CCC2)c2ccncc2)CCN2CCCC12 (single isomer, unassigned) [138a]

55
-15
91

* * *

Give Percentage inhibition of ligand binding, Adrenergic α2B (10 nM) for every item shown.
# Target: Human adrenergic α2B receptor (Homo sapiens, UniProt P18089)
# Experimental protocol: Radioligand binding, adrenergic α2B (Protocol Group B)
# Design: purchased Milipore (Millipore)
# Assay conditions: 10 nM compound; Protocol Group B; 0.01 µM
Give bare numbers, in %.

// for each molecule below, give its Percentage inhibition of ligand binding, Adrenergic α2B (10 nM)
1. Cc1cc(Cl)c2c(c1)c1c(n2CC(C)(O)c2ccncc2)CCN2CCCC12 (single isomer, unassigned) [91c]
2. CC(O)(Cn1c2c(c3cc(F)cc(Cl)c31)C1CCCN1CC2)c1cccnc1 (single isomer, unassigned) [89b]
3. OC(Cn1c2c(c3cc(F)ccc31)C1CCCN1CC2)c1ccncc1 (stereo not drawn) [compound 18]
4. Cc1cc(F)cc2c3c(n(CC(C)(O)c4cccnc4)c12)CC1CCCN1C3 (single isomer, unassigned) [76c]
5. CC(O)(Cn1c2c(c3cc(C(F)(F)F)ccc31)C1CCCN1CC2)c1cccnc1 (single isomer, unassigned) [64b]
6. Cc1cc(C)c2c(c1)c1c(n2CC(C)(O)c2cccnc2)CCN2CCCC12 (single isomer, unassigned) [44c]

["−16", 0, 54, "−3", 15, "−9"]

* * *

Give Percentage inhibition of ligand binding, Adrenergic α2A (0.1 μM) for every item shown.
# Target: Human adrenergic α2A receptor (Homo sapiens, UniProt P08913)
# Sequence (P08913 1-465): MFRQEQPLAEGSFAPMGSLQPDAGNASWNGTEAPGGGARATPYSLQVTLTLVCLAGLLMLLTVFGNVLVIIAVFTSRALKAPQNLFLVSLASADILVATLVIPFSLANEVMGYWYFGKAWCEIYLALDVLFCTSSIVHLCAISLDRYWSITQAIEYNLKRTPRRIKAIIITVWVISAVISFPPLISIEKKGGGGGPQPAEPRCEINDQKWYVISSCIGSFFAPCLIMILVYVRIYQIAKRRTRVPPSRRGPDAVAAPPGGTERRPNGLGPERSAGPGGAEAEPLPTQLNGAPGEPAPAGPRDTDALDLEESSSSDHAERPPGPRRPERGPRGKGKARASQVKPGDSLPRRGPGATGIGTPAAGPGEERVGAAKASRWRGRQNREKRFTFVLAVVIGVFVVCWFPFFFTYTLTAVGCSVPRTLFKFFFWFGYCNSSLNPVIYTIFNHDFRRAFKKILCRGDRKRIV
# Experimental protocol: Radioligand binding, adrenergic α2A (Protocol Group B)
# Design: purchased Milipore (Millipore)
# Assay conditions: 0.1 μM compound; Protocol Group B; 0.1 µM

Please review the following examples before continuing.
>>> experimental_result("CN1CCc2c(c3cc(CCO)ccc3n2CC(C)(O)c2cccnc2)C1 (single isomer, unassigned) [139a]")
"7%"
>>> experimental_result("Cc1ccc2c(c1)c1c(n2CC(O)c2ccccn2)CC2CCCN2C1 (single isomer, unassigned) [45a]")
"−1%"
>>> experimental_result("Cc1ccc2c(c1)c1c(n2CC(C)(O)c2cccnc2)CC2CCC1N2C (single isomer, unassigned) [101b]")
"1%"
>>> experimental_result("Cc1ccc2c(c1)c1c(n2CC(C)(O)c2ccc(F)cc2)CN2CCC1C2 (single isomer, unassigned) [134d]")
"15%"

// for each compound below, give its Percentage inhibition of ligand binding, Adrenergic α2A (0.1 μM)
1. CN1CCc2c(c3cc(C(F)(F)F)ccc3n2CC(OC2CCCC2)c2ccncc2)C1 (single isomer, unassigned) [60b]
2. OC(Cn1c2c(c3cc(F)cc(F)c31)C1CCCN1CC2)c1ccncc1 (single isomer, unassigned) [144a]

1: 3%; 2: 16%

Looking up Cc1ccc2c(c1)c1c(n2CC(C)(O)c2ccc(F)cc2)CN2CCC1C2 (single isomer, unassigned) [134a] , I found its Percentage inhibition of ligand binding, Adrenergic α2A (0.1 μM) recorded as −5%
